target: UniProtKB P08253; test: Inhibition of human recombinant MMP2 using MOCAc-Pro-Leu-Gly-Leu-A2pr(Dnp)-Ala-Arg- NH2 as substrate preincubated for 10 mins measured after 3 hrs by fluorescence assay
Sequence (P08253 whole entry): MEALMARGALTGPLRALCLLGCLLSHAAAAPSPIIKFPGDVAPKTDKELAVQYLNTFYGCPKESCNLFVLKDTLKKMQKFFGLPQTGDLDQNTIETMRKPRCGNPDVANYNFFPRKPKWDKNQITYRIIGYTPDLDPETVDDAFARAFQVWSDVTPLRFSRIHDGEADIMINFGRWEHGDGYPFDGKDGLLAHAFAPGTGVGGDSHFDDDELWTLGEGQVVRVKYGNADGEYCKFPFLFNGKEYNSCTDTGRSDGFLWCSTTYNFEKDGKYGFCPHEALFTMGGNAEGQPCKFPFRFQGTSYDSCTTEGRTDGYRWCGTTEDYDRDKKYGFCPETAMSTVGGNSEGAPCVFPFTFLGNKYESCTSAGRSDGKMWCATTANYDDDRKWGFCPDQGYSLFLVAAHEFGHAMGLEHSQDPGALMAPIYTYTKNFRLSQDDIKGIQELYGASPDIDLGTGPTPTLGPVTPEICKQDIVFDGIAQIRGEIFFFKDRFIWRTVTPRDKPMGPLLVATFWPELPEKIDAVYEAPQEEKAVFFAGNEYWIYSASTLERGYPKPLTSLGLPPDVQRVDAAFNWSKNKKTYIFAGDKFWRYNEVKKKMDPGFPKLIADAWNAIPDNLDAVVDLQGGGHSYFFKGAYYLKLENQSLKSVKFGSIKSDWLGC
pIC50: −log10 of the molar value.
quantity: pIC50

1. Nc1nc2c(-c3cc(Br)c(Br)[nH]3)nccc2[nH]1 = 5.32
2. Nc1nc2c(-c3ccc[nH]3)nccc2[nH]1 = 4.30

====

biological target: Cyclin-dependent kinase-like 5 (Homo sapiens, UniProt O76039)
Sequence (O76039 whole entry): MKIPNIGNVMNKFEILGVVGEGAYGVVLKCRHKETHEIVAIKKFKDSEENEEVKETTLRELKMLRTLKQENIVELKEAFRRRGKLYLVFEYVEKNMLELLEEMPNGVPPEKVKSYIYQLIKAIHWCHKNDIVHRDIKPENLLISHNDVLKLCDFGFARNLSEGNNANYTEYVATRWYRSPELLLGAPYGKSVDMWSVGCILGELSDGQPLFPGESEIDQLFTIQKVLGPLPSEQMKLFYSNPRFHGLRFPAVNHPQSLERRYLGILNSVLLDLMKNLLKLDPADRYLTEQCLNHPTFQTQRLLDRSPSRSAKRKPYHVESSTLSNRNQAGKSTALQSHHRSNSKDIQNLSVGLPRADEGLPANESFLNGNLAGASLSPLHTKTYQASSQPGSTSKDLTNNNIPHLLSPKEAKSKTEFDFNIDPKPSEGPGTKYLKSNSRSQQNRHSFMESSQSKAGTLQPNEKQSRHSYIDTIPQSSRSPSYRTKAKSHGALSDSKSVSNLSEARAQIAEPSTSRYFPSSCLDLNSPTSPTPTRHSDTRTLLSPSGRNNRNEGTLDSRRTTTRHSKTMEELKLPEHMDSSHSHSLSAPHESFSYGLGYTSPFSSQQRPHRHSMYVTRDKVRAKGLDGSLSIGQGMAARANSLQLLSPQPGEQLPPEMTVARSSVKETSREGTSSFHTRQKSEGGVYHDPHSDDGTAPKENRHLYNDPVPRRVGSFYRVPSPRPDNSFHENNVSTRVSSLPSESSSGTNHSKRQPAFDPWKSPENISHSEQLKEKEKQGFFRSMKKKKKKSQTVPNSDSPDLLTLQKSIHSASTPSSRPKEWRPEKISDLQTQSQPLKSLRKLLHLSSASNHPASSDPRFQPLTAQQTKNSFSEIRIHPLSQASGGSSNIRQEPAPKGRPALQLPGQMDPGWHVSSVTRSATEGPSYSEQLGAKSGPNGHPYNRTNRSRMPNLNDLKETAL
quantity: Kd (µM)

1) Nc1nc2c(-c3cnc4ccccc4c3)nccc2[nH]1 = 40

====

test: Toxicity in human Caki1 cells; type: cell-based, CAKI-1; conditions: read-out: LD50 (the source's name)
quantity: CC50 (µM)

1) Nc1nc2c(-c3ccccn3)nccc2[nH]1 = 25
